biological target: biotinylated labeled human GPC3 protein (produced in-house) (human, UniProt P51654 25-559, limits assumed, biotinylated (Dojindo, Cat. No. LK03); sites not stated); experiment: ELISA, biotinylated human GPC3 protein
As shown below, each of these binders has a reported OD450 at 13.33 nM value.
I only need the number, in OD450, no unit after it.

hAb001H1L1a (antibody, human IgG1, V domains shown, Humanized F2.169.2; VH H1 + VL L1a; expressed as human IgG1) VH: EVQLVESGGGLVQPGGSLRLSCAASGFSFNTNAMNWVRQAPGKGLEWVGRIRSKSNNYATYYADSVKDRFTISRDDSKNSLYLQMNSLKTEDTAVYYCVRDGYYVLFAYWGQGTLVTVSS VL: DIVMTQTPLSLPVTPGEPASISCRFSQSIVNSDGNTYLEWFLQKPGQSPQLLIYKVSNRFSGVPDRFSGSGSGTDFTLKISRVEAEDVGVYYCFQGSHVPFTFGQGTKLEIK : 2.6

We next turn to a different binder, shown below.
Per the records, this binder ( hAb003LH2L1a (antibody, human IgG1, V domains shown, Humanized F2.154.1; VH H2 + VL L1a; expressed as human IgG1) VH: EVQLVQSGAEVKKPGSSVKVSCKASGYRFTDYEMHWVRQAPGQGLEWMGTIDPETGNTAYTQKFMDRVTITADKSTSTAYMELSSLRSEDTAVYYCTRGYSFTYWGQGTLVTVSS VL: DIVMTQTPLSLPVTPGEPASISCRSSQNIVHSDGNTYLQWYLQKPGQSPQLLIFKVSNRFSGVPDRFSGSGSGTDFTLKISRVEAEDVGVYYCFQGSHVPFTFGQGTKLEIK ) has OD450 at 13.33 nM equal to 2.18
